System: MRSA and MSSA
Experiment: Antibacterial activity of gallic acid, various gallates and multivalent phenol derivatives alone (agar plate dilution method, MIC)
Assay type: cell-based, Staphylococcus aureus
Conditions: Staphylococcus aureus, MRSA #8; read-out: MIC alone
Overview of reported MIC across a group of molecules:
Reply with just the number (in µg/mL).

Example cases with answers are listed next.
CCOC(=O)c1cc(O)c(O)c(O)c1 [Ethyl gallate, ethyl gallate]	125
CCCCCCCCCCOC(=O)c1cc(O)c(O)c(O)c1 [Decyl gallate, n-decyl gallate]	15.7

For CCCCCCCCOC(=O)c1cc(O)c(O)c(O)c1 [Octyl gallate, n-octyl gallate] the molecule record lists MIC as 31.3

For COC(=O)c1cc(O)c(O)c(O)c1 [Methyl gallate, methyl gallate] the molecule record lists MIC as 250

----------
Tested on: MRSA COL and MRSA Strain No. 5
Test: Potentiating effect of various gallates for antibacterial activity of oxacillin (MIC by broth microdilution method and FIC)
Format: cell-based, Staphylococcus aureus
Conditions: MRSA Strain No. 5; combination with oxacillin
Overview of reported FIC value across a group of compounds:
Just the number.

CCCCCCCCCCOC(=O)c1cc(O)c(O)c(O)c1 [Decyl gallate, n-decyl gallate]	0.508

Next compound, please.
For CCCCCCOC(=O)c1cc(O)c(O)c(O)c1 [Hexyl gallate, n-hexyl gallate] the compound record lists FIC value as 0.502

----------
Overview of reported MIC50 across a group of compounds:
Tested on: MRSA and MSSA
Assay: Antibacterial activity of gallic acid, various gallates and multivalent phenol derivatives alone (agar plate dilution method, MIC)
Assay type: cell-based, Staphylococcus aureus
Settings: Staphylococcus aureus
Reply with just the number (in µg/mL).

Example cases with answers are listed next.
CCCCCCCCCCOC(=O)c1cc(O)c(O)c(O)c1 [Decyl gallate, n-decyl gallate]	15.7
CC(C)COC(=O)c1cc(O)c(O)c(O)c1 [isoButyl gallate, isobutyl gallate]	125
CCCCCCCCCCCOC(=O)c1cc(O)c(O)c(O)c1 [Undecyl gallate, n-undecyl gallate]	31.3
CCCCCOC(=O)c1ccc(O)cc1 [n-Amyl 4-hydroxybenzoate]	62.5
CCCCCCOC(=O)c1cc(O)c(O)c(O)c1 [Hexyl gallate, n-hexyl gallate]	62.5

For CC(C)CCOC(=O)c1cc(O)c(O)c(O)c1 [isoAmyl gallate, Isoamyl gallate] on MRSA and MSSA, measured MIC50 was 62.5

For CCCCCCCCCOC(=O)c1cc(O)c(O)c(O)c1 [Nonyl gallate, n-nonyl gallate] on MRSA and MSSA, measured MIC50 was 15.7

For CCCC(=O)c1cc(O)c(O)cc1O [2′,4′,5′-trihydroxybutyrophenone] on MRSA and MSSA, measured MIC50 was 125

For CCCCCOC(=O)c1cc(O)c(O)c(O)c1 [Pentyl gallate, n-pentyl gallate] on MRSA and MSSA, measured MIC50 was 62.5

----------
Tested on: MRSA and MSSA
Assay: Antibacterial activity of gallic acid, various gallates and multivalent phenol derivatives alone (agar plate dilution method, MIC)
Assay type: cell-based, Staphylococcus aureus
Conditions: Staphylococcus aureus, MRSA #10; compound alone; read-out: MIC
MEASURED PROPERTY: MIC (µg/mL)
Reply with just the number (in µg/mL).

Example cases with answers are listed next.
CCCCCCCCCCCOC(=O)c1cc(O)c(O)c(O)c1 [Undecyl gallate, n-undecyl gallate]	31.3
CC(C)COC(=O)c1cc(O)c(O)c(O)c1 [isoButyl gallate, isobutyl gallate]	62.5
CCCCCCCCCCCCCCCCOC(=O)c1cc(O)c(O)c(O)c1 [Cetyl gallate]	125

For CC(=O)c1ccc(O)c(O)c1O [2′,3′,4′-trihydroxyacetophenone] the molecule record lists MIC as 31.3

For CCCCCOC(=O)c1ccc(O)cc1 [n-Amyl 4-hydroxybenzoate] the molecule record lists MIC as 62.5

For CC(C)CCOC(=O)c1ccc(O)cc1 [Isoamyl 4-hydroxybenzoate] the molecule record lists MIC as 31.3

For CC(C)CCOC(=O)c1cc(O)c(O)c(O)c1 [isoAmyl gallate, Isoamyl gallate] the molecule record lists MIC as 31.3

For CCCC(=O)c1cc(O)c(O)cc1O [2′,4′,5′-trihydroxybutyrophenone] the molecule record lists MIC as 62.5

For CCCCCCCCCCCCOC(=O)c1cc(O)c(O)c(O)c1 [Lauryl gallate, n-lauryl gallate] the molecule record lists MIC as 15.6
